From: patent US20240376121A1

Measured Dmax accompanies every entry in the list below.
# TARGET_OR_TEST_SYSTEM: HiBit-BRG1 fusion protein (Homo sapiens)
# Construct: expressed in transfected cells
# Sequence (P51532 whole entry, the tested form may be a part): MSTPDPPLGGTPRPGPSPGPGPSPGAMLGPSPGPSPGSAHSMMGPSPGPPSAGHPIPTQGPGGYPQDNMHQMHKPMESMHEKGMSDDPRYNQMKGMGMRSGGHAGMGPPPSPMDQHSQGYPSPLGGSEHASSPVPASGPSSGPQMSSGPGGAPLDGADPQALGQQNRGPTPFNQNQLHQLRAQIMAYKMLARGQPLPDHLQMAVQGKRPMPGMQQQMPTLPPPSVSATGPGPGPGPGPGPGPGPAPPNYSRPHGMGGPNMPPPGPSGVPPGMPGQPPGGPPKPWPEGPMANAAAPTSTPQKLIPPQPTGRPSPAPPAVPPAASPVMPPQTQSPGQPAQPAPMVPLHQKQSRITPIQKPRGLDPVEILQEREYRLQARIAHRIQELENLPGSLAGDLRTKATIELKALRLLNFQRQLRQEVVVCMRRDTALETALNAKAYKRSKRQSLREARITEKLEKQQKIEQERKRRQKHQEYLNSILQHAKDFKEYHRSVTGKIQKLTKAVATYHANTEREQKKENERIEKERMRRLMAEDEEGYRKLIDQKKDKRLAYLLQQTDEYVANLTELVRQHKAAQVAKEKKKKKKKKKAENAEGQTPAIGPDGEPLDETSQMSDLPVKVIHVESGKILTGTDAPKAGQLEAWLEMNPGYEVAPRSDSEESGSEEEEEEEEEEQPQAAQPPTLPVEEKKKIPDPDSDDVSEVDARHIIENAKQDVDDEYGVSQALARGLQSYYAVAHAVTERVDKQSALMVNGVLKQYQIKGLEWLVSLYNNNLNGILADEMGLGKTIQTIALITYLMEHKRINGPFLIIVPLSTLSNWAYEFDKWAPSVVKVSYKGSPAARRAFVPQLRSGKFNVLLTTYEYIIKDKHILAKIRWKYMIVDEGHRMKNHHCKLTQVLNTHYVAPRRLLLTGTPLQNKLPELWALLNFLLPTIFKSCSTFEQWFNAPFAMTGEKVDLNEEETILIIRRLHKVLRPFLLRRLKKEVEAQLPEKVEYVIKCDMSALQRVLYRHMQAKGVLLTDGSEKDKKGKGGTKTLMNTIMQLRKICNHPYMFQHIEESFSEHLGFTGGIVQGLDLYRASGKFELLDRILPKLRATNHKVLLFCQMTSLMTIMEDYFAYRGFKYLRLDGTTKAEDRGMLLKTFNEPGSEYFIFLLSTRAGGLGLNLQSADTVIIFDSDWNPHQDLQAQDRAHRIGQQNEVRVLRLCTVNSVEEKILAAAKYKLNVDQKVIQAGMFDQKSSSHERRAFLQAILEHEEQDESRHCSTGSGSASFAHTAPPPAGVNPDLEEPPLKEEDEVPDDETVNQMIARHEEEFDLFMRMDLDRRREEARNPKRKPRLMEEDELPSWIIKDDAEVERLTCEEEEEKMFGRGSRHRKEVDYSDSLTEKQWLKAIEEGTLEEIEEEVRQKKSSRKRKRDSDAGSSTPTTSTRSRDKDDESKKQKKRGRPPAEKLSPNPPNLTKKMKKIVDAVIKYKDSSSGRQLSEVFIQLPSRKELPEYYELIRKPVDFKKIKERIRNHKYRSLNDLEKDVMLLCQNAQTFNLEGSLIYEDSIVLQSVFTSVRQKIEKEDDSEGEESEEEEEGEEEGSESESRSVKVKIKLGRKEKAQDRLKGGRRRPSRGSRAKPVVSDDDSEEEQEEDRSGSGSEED
# ASSAY_COMMENT: HiBiT-BRG1 cell-based degradation assay (Nano-Glo HiBiT Lytic Detection)
# REPORTED_CONDITIONS: stable HeLa cell line expressing HiBit-BRG1 and LgBit, 24 h incubation, top dose 30 μM; read-out: BRG1 HiBit Degradation Maximum (%)
# Protocol: Procedure: A stable HeLa cell line expressing HiBiT-BRM was generated. On day 0, 5000 cells were seeded in 40 μL of media into each well of 384-well cell culture plates. […] The plates were shaken for 10 minutes at room temperature and the bioluminescence read using an EnVision plate reader (PerkinElmer). […] The degradation % was calculated using the following formula: % degradation=100%−100%×(LumSample−LumLC)/(LumHC−LumLC). […]

MOLECULE: Cc1ncsc1-c1ccc([C@H](C)NC(=O)[C@@H]2C[C@@H](O)CN2C(=O)[C@@H](c2cc(OCCN3CCC(c4sc5nnc(-c6ccccc6O)cc5c4Cl)CC3)no2)C(C)C)cc1 [Compound 90]
Dmax: < 50%

GET /value?item= Cc1ncsc1-c1ccc([C@H](C)NC(=O)[C@@H]2C[C@@H](O)CN2C(=O)[C@@H](c2cc(N3CCC(N4CCC(c5cc6nnc(-c7ccccc7O)cc6s5)CC4)CC3)no2)C(C)C)cc1 [Compound 87] &field=Dmax returns < 50%

Dmax reported for this molecule Cc1ncsc1-c1ccc(CNC(=O)[C@@H]2C[C@@H](O)CN2C(=O)[C@@H](NC(=O)[C@H]2CC[C@H](c3cnc(N4CCC(c5sc6nnc(-c7ccccc7O)cc6c5C)CC4)nc3)CC2)C(C)(C)C)cc1 [Compound 85] : ≥ 75%

Recorded Dmax (molecule Cc1ncsc1-c1ccc([C@H](C)NC(=O)[C@@H]2C[C@@H](O)CN2C(=O)[C@@H](c2cc(OCCN3CCC(N4CC(c5sc6nnc(-c7ccccc7O)cc6c5C)C4)CC3)no2)C(C)C)cc1 [Compound 100] ): < 50%

So for Cc1ncsc1-c1ccc([C@H](C)NC(=O)[C@@H]2C[C@@H](O)CN2C(=O)[C@@H](c2cc(N3CCC(C(=O)N4CC(c5cc6nnc(-c7ccccc7O)cc6s5)C4)CC3)no2)C(C)C)cc1 [Compound 99] , the logged Dmax turned out to be < 50%

====

Listing of recorded Dmax by entry.
# TARGET_OR_TEST_SYSTEM: HiBit-BRG1 fusion protein (Homo sapiens)
# Construct: expressed in transfected cells
# ASSAY_COMMENT: HiBiT-BRG1 cell-based degradation assay (Nano-Glo HiBiT Lytic Detection)
# REPORTED_CONDITIONS: stable HeLa cell line expressing HiBit-BRG1 and LgBit, 24 h incubation, top dose 30 μM; read-out: BRG1 HiBit Degradation Maximum (%)

COMPOUND: Cc1ncsc1-c1ccc(CNC(=O)[C@@H]2C[C@@H](O)CN2C(=O)[C@@H](NC(=O)CCCC(=O)N2CCC(c3cc4nnc(-c5ccccc5O)cc4s3)CC2)C(C)(C)C)cc1
Dmax: < 50%
//
COMPOUND: Cc1ncsc1-c1ccc([C@H](C)NC(=O)[C@@H]2C[C@@H](O)CN2C(=O)[C@@H](c2cc(OCCN3C[C@H]4C[C@@H](C3)[C@@H]4c3cc4cc(-c5ccccc5O)nnc4s3)no2)C(C)C)cc1
Dmax: < 50%

Let me check: `Cc1ncsc1-c1ccc([C@H](C)NC(=O)[C@@H]2C[C@@H](O)CN2C(=O)[C@@H](c2cc(OCC(=O)N3CC(c4cc5nnc(-c6ccccc6O)cc5s4)C3)no2)C(C)C)cc1` , system HiBit-BRG1 fusion protein (Homo sapiens), measured Dmax is ≥ 50%

Entry `Cc1ncsc1-c1ccc(CNC(=O)[C@@H]2C[C@@H](O)CN2C(=O)[C@@H](NC(=O)CCN2CCC(c3cc4nnc(-c5ccccc5O)cc4s3)CC2)C(C)(C)C)cc1` : Dmax on HiBit-BRG1 fusion protein (Homo sapiens) = ≥ 75%

// assay HiBit-BRG1 fusion protein (Homo sapiens), entry `Cc1ncsc1-c1ccc([C@H](C)NC(=O)[C@@H]2C[C@@H](O)CN2C(=O)[C@@H](c2cc(N3C[C@H]4C[C@@H]3CN4C(=O)[C@H]3CCc4sc5nnc(-c6ccccc6O)cc5c4C3)no2)C(C)C)cc1` , Dmax value = ≥ 50%

Entry `Cc1ncsc1-c1ccc([C@H](C)NC(=O)[C@@H]2C[C@@H](O)CN2C(=O)[C@@H](c2cc(OCCN3CC(Cc4csc5nnc(-c6ccccc6O)cc45)C3)no2)C(C)C)cc1` , tested on HiBit-BRG1 fusion protein (Homo sapiens), has a reported Dmax of < 50%

For `Cc1ncsc1-c1ccc([C@H](C)NC(=O)[C@@H]2C[C@@H](O)CN2C(=O)[C@@H](c2cc(OCCN3CC(Cc4c(C)sc5nnc(-c6ccccc6O)cc45)C3)no2)C(C)C)cc1` on HiBit-BRG1 fusion protein (Homo sapiens), measured Dmax was < 50%

Dmax of Cc1ncsc1-c1ccc([C@H](C)NC(=O)[C@@H]2C[C@@H](O)CN2C(=O)C(c2cc(C3CC(N4CCC(c5sc6nnc(-c7ccccc7O)cc6c5C)CC4)C3)no2)C(C)C)cc1 (single isomer, unassigned) , assay on HiBit-BRG1 fusion protein (Homo sapiens), is < 50%

====

This section presents molecules with their documented DC50 values.
# TARGET_OR_TEST_SYSTEM: HiBit-BRM fusion protein (Homo sapiens, UniProt P51531)
# Construct: expressed in transfected cells
# Sequence (P51531 whole entry, the tested form may be a part): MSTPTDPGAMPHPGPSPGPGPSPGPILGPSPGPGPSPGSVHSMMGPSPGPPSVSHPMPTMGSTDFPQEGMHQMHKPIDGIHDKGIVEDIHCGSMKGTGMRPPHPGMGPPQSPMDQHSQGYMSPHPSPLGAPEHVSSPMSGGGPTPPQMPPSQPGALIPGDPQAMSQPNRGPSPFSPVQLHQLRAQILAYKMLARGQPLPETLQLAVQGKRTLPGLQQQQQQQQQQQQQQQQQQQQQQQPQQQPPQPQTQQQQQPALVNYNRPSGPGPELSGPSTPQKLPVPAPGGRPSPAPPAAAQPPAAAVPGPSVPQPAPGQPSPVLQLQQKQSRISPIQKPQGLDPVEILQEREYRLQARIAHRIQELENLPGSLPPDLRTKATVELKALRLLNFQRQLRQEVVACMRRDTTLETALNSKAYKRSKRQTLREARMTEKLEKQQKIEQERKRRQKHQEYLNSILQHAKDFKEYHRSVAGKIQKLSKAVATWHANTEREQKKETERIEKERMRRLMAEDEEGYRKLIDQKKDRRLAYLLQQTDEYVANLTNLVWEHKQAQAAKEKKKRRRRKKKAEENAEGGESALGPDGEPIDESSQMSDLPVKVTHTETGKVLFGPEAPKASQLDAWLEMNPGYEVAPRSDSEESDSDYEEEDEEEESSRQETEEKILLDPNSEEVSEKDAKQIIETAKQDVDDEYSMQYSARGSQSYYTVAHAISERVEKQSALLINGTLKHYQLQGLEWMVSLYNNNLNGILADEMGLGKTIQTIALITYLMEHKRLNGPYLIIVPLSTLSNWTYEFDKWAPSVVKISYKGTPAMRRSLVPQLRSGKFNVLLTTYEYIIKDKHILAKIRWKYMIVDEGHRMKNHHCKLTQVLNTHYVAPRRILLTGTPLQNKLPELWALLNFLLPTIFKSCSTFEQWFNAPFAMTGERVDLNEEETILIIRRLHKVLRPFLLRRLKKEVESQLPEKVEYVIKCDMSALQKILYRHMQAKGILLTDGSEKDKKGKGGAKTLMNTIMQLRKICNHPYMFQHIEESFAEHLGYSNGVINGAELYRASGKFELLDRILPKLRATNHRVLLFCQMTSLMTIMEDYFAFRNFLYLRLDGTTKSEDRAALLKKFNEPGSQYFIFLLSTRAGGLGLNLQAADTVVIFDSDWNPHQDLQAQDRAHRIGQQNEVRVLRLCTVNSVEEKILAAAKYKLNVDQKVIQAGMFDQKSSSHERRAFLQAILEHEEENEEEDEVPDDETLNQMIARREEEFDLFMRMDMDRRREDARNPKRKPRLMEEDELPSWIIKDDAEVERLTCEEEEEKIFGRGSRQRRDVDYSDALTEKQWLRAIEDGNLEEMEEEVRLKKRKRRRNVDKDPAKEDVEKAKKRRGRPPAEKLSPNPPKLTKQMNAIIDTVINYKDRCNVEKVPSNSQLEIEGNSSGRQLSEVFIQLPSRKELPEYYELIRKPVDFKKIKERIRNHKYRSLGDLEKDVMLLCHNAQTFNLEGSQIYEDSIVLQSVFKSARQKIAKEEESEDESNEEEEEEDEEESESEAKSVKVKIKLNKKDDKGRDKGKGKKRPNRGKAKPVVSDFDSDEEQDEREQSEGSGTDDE
# ASSAY_COMMENT: HiBiT-BRM cell-based degradation assay (Nano-Glo HiBiT Lytic Detection)
# REPORTED_CONDITIONS: stable HeLa cell line expressing HiBiT-BRM, 24 h incubation; read-out: BRM HiBit Degradation IC50

Some molecules with recorded DC50:
MOL: Cc1ncsc1-c1ccc(CNC(=O)[C@@H]2C[C@@H](O)CN2C(=O)[C@@H](NC(=O)CCN2CC(c3cc4cc(-c5ccccc5O)nnc4s3)C2)C(C)(C)C)cc1
OBSERVED_VALUE: ≥ 1000 nM

MOL: Cc1ncsc1-c1ccc([C@H](C)NC(=O)[C@@H]2C[C@@H](O)CN2C(=O)[C@@H](c2cc(N3CCC(C(=O)N4CC(c5cc6cc(-c7ccccc7O)nnc6s5)C4)CC3)no2)C(C)C)cc1
OBSERVED_VALUE: ≥ 10 nM

MOL: Cc1ncsc1-c1ccc([C@H](C)NC(=O)[C@@H]2C[C@@H](O)CN2C(=O)[C@@H](c2cc(N3CCC(CN4CC(c5sc6nnc(-c7ccccc7O)cc6c5C)C4)CC3)no2)C(C)C)cc1
OBSERVED_VALUE: ≥ 10 nM

The record that follows has no DC50 shown yet.
DC50 in this record for `Cc1ncsc1-c1ccc([C@H](C)NC(=O)[C@@H]2C[C@@H](O)CN2C(=O)[C@@H](c2cc(O[C@@H]3CC[C@@H]3N3CCC(c4sc5nnc(-c6ccccc6O)cc5c4C)CC3)no2)C(C)C)cc1` : ≥ 10 nM

====

# TARGET_OR_TEST_SYSTEM: HiBit-BRM fusion protein (Homo sapiens)
# Construct: expressed in transfected cells
# ASSAY_COMMENT: HiBiT-BRM cell-based degradation assay (Nano-Glo HiBiT Lytic Detection)
# REPORTED_CONDITIONS: stable HeLa cell line expressing HiBiT-BRM, 24 h incubation; read-out: BRM HiBit Degradation IC50
# Protocol: Procedure: A stable HeLa cell line expressing HiBiT-BRM was generated. On day 0, 5000 cells were seeded in 40 μL of media into each well of 384-well cell culture plates. […] The plates were shaken for 10 minutes at room temperature and the bioluminescence read using an EnVision plate reader (PerkinElmer). The degradation % was calculated using the following formula: % degradation=100%−100%×(LumSample−LumLC)/(LumHC−LumLC). […]
REPORTED_PROPERTY: DC50

Please review the following examples before continuing.
MOLECULE: Cc1ncsc1-c1ccc([C@H](C)NC(=O)[C@@H]2C[C@@H](O)CN2C(=O)[C@@H](c2cc(N3CCC(N4CCC(c5cc6nnc(-c7ccccc7O)cc6s5)CC4)CC3)no2)C(C)C)cc1
OBSERVED_VALUE: < 10 nM

MOLECULE: Cc1ncsc1-c1ccc([C@H](C)NC(=O)[C@@H]2C[C@@H](O)CN2C(=O)[C@@H](c2cc(N3C[C@@H]4C[C@H]3CN4C(=O)[C@H]3CCc4sc5nnc(-c6ccccc6O)cc5c4C3)no2)C(C)C)cc1
OBSERVED_VALUE: ≥ 1000 nM

MOLECULE: Cc1ncsc1-c1ccc([C@H](C)NC(=O)[C@@H]2C[C@@H](O)CN2C(=O)[C@@H](c2cc(N3CCN(C(=O)[C@@H]4CCc5sc6nnc(-c7ccccc7O)cc6c5C4)CC3)no2)C(C)C)cc1 (single isomer, unassigned)
OBSERVED_VALUE: ≥ 1000 nM

MOLECULE: Cc1ncsc1-c1ccc([C@H](C)NC(=O)[C@@H]2C[C@@H](O)CN2C(=O)[C@@H](c2cc(N3CCC(CN4CCc5sc6nnc(-c7ccccc7O)cc6c5C4)CC3)no2)C(C)C)cc1
OBSERVED_VALUE: ≥ 1000 nM

DC50 for `Cc1ncsc1-c1ccc([C@H](C)NC(=O)[C@@H]2C[C@@H](O)CN2C(=O)[C@@H](c2cc(OCCN3CCC(O)(c4sc5nnc(-c6ccccc6O)cc5c4C)CC3)no2)C(C)C)cc1` is ≥ 10 nM

Looking up `Cc1ncsc1-c1ccc([C@H](C)NC(=O)[C@@H]2C[C@@H](O)CN2C(=O)[C@@H](c2cc(OCCN3CCC(c4cc5nnc(-c6ccccc6O)cc5s4)CC3)no2)C(C)C)cc1` , I see its DC50 listed as < 10 nM
